Assay: protein stability index of a GFP-peptide fusion (yeast GPS) (PSI 1-4); higher = more stable; sorted into four equal gates, so the index is relative within each strain
Conditions: doa10∆
Measured protein stability index, listed per entry for reference.
API note: the answer field is a bare number with no unit suffix.

biopolymer sequence	protein stability index
PGVLPVGIDTHTATDIY [SNF2]	2.96
SKSTSMKLSMPPEVTSS [POP1]	2.4
EVLLAGFGRKGKAKGDI [RPS23A]	3.41
SEKKDTDGADENVQIGE [SRB4]	2.65

Value lookup for protein stability index; key = VGPSEQNFAEEDDSSNS [REC8] 2.56

What does the record list as protein stability index for QLEYKRGEIREIEQVCK [MED7] ? 1.49

---

Assay: protein stability index of a GFP-peptide fusion (yeast GPS) (PSI 1-4); higher = more stable; sorted into four equal gates, so the index is relative within each strain
Details: ubr1∆
Label class 0 if protein stability index falls below 3; label class 1 in every other case.

Example cases with answers are listed next.
biopolymer sequence	label class
FNSVKSFDEWFNTPFAN [SNF2]	class 1
EVYTLVDSQGLPYNWDA [ARP7]	class 1
VIGGNSLFHIVVDTEET [SMC3]	class 0
GTGKTLLAKAVANQTSA [RPT2]	class 0
NSANGSSLNGTNAKIPQ [SSN3]	class 0
ARNLYIIAVKGSGSRLN [RPL23A]	class 0

In plain terms: is recorded protein stability index at least 3 for GNLSGKRVDFSGRTVIS [RPO31] ? class 1

Please check the record ELQMRSFLKEGDLLNAE [RRP4] and state if its protein stability index is at or above 3. class 1

Confirm if protein stability index reported for the sequence KMIILDKLLKRLKEKGS [ISW2] is 3 or above. class 0

---

Listing of recorded protein stability index by entry.
Assay: protein stability index of a GFP-peptide fusion (yeast GPS) (PSI 1-4); higher = more stable; sorted into four equal gates, so the index is relative within each strain
Conditions: doa10∆

Example sequences with recorded protein stability index:
biopolymer sequence	protein stability index
LAEKVEKASRQQRKQKK [RPS24A]	3.65
PQFDSTQPKSSSSMDMQ [SSN3]	2.94
PPSSFGRSHTRNSTRSS [REC8]	3.04
DSVATVIEVIETKWDDA [YJR042W/NUP85]	2.32

Shifting focus to the sequence that follows.
// query protein stability index value for entry HIAHTLPEKVNFRTMQQ [SSN2] 2.78

---

Test: protein stability index of a GFP-peptide fusion (yeast GPS) (PSI 1-4); higher = more stable; sorted into four equal gates, so the index is relative within each strain
Conditions: ubr1∆
Give 1 when the value for protein stability index is at least 3. Give 0 when it is less.

Below are worked cases with known answers.
biopolymer sequence	label class
SNGFNNVTFGSKKDPRI [YMR153W/NUP53]	0
AKKRKTLILIQNPENLL [SIR3]	0
ISVNSSSFSLTFFPRCI [POP1]	0
YENSISKDLRSVWKPIA [IRR1]	0

Item SFLDPLNYGNICEPKET [YJL039C/NUP192] with protein stability index of 3 or above? 0

Check this sequence for protein stability index at or above 3: VVESVGAEVDEARINEL [RPP2B] 1

---

Assay: protein stability index of a GFP-peptide fusion (yeast GPS) (PSI 1-4); higher = more stable; sorted into four equal gates, so the index is relative within each strain
Conditions: san1∆
reported endpoint: protein stability index
Give only the figure.

// worked examples, protein stability index included
biopolymer sequence	protein stability index
PYFPGGSIAMARVLFDD [CYT1]	2.61
FELIELVTPKSFLFDVL [NUT1]	1.08
IDEKSQFVETIVSKSIE [RPN2]	1.64

Entry under review: NINSTDKSIDTSSLQLY [YML103C/NUP188] . Reported protein stability index? 3.11

Need protein stability index, item IKLDRWLMEGSYQKAWD [RPN12] 2.9

Consider the sequence shown here: HVKVNDKKEMTIYNNIR [SIR3] What is its recorded protein stability index? 2.87

---

# key: entry, value: protein stability index
Test: protein stability index of a GFP-peptide fusion (yeast GPS) (PSI 1-4); higher = more stable; sorted into four equal gates, so the index is relative within each strain
Settings: san1∆

biopolymer sequence	protein stability index
TNLQRNVDRLYKLNVRS [NUT2]	3.01
PQFDSTQPKSSSSMDMQ [SSN3]	2.95

Any idea what its protein stability index is? The sequence is GKPTVNKKPKNKKKGRK [SRP72] 2.93

---

Experiment: protein stability index of a GFP-peptide fusion (yeast GPS) (PSI 1-4); higher = more stable; sorted into four equal gates, so the index is relative within each strain
Conditions: pdr5∆
reported endpoint: protein stability index
// no unit, no text: just the number

Worked cases, protein stability index given:
biopolymer sequence	protein stability index
LKNKKEIYRISFQLSKI [RPS9A]	3.09
PFSYLIDETMMDKPLNF [SRB5]	3.09
TRPQMPSRTRETATSER [GRR1]	3.12
IGHLIKTRFKGSQFIVV [SMC2]	3.05
EPYVAYGYPSYSTIRQL [RPL7A]	2.14
IREINYTMSNHGMSVDP [RPO31]	3.03
EDGTFSVLYPDELEDDT [RRP43]	3.1
KQEIREAVELPLVQADL [RPT3]	2.81
SPSYSPTSPSYSPTSPS [RPO21]	2.33
RVIDDNNRRRSRKRGGE [SIR3]	3.36

Report protein stability index for SNMILGSVELSTGDYTF [YML103C/NUP188] please. 2.35

May I ask what protein stability index has been recorded for DLLNAASIESADILCPL [IRR1] ? 2.24

Which protein stability index value belongs to LLKKIIFEKELMYQIKK [SRB4] ? 2.67

---

Assay: protein stability index of a GFP-peptide fusion (yeast GPS) (PSI 1-4); higher = more stable; sorted into four equal gates, so the index is relative within each strain
Details: san1∆
Recorded protein stability index values for a group of sequences are listed next.
Form rule: numeric answer, no unit written next to it.

biopolymer sequence	protein stability index
TEKMEEQLDLLSAILDP [MED11]	3.13
IQNDIYLNDLMITKRIL [RPN12]	2.72
EFEIPVSFNGFKLPKKF [BRR2]	2.61
FNVHEVPRAALEERFDP [YMR129W/POM152]	3.16
IREGQNQKIPDNVIVIN [SIR3]	2.98

Request the reported protein stability index associated with VIQIVTGIFMAMHYSSN [COB] 1.33

Recorded protein stability index of NFSNVTDLTNNSTDGAK [YIL149C/MLP2] , please. 3.41

Query: protein stability index; subject: MSGILHCEDKDYKTAFS [RPN6] 2.51

What measured protein stability index goes with YQNRSTRSQFCLNTQRG [RRI1] ? 3.1

Fill blank: measured protein stability index of the sequence NTFTWNHSLQHQNESSA [RPN4] is ____. 3.18

What protein stability index value was documented for this sequence, SEYDRGVSTFSPEGRLF [PUP2] ? 3.32

Reported protein stability index, sequence RNLDSATLKEIKSIIEQ [SMC3] : ____ 3.2

Report protein stability index for RQSKSSGKSNTSNDASN [ITC1] please. 3.34

I'd like to know its protein stability index. The sequence in question is RAANQGALPPDLSLIVK [CYT1] 3.03

Given the entry DAIWSLVFQLAKNFSAQ [SRB8] , report its measured protein stability index. 2.4

I'd like to know its protein stability index. The sequence in question is ASIGQAAEQQSKAFKES [SRP54] 3.14

Please report the recorded protein stability index for FSFGKSDAAKEPPGSNT [YOR098C/NUP1] . 2.84

Which protein stability index is listed for RKEWFDIKAPSTFENRN [RPS1A] ? 1.77

# query: protein stability index of entry GFIENCNGSALVEARSL [MTR3] 2.23

Looking for the measured protein stability index of LKGKINNEMKSLQRSKS [SMC1] , can you help? 3.11

---

Experiment: protein stability index of a GFP-peptide fusion (yeast GPS) (PSI 1-4); higher = more stable; sorted into four equal gates, so the index is relative within each strain
Conditions: san1∆
reported endpoint: protein stability index
# respond with the number and nothing more

Solved cases below.
biopolymer sequence	protein stability index
VFHDPDHSMILPSGVLS [SMC3]	2.04
LYYPQKPLGTTRAMEYL [RPB2]	2.05

// moving on: another record for protein stability index
Which value of protein stability index has been reported for MNNQPQGTNSVPNSIGN [SNF5] in the records? 3.04

---

The sequences listed here are annotated with their protein stability index.
Assay: protein stability index of a GFP-peptide fusion (yeast GPS) (PSI 1-4); higher = more stable; sorted into four equal gates, so the index is relative within each strain
Conditions: ubr1∆

biopolymer sequence	result
IKSQYYSRISKLKQLLD [YIL149C/MLP2]	1.45
LHLAVGKKWFEVSQFLI [NAS6]	1.51
GNYSHLMEKNRIRKLTG [REC8]	1.9

# input for lookup
Request the reported protein stability index associated with NQLVAKLLLLRINSTDE [SRB8] 1.14
